Answer each item with its documented Binding affinity (RU).
systemName: acetylcholine receptor
method: SPR, peptide at 10 uM over immobilized acetylcholine receptor
Numbers only, in RU.

// worked examples, Binding affinity (RU) included
>>> reading("RRQQRR [6mer-2-98]")
148
>>> reading("KLYTRK [6mer-2-75]")
133

Answer for every listed entry: what is its Binding affinity (RU)? The entries follow.
1. KQQTKR [6mer-2-131]
2. RQFTKR [6mer-2-123]
3. KWFSRR [6mer-2-118]
4. RLYTKR [6mer-2-73]
5. RWVQRK [6mer-2-106]
6. RGVCRR [6mer-2-130]
7. KQQTRR [6mer-2-77]

148
146
135
139
123
122
123
